The reported measurements were obtained from paper PMC5540273.

System: RIOK2
STATED CONDITIONS: concentration: 1 μM, replicates: in singlicate; n = 1
MEASUREMENT TYPE: %Inh (%)
Express the result in % but write the number alone.

COc1ccc2nc(-c3cccc(C)n3)nc(Nc3ccncc3)c2c1 [GSK204919]    0
CCCc1ccc(S(=O)(=O)NC2CCN(c3ccnc(Nc4ccc(F)cc4)n3)C2)cc1 (centres unmarked) [GSK1379715]    0
Nc1nc(-c2nccs2)c(-c2ccnc3ccccc23)s1 [GW693542]    6
Cl.c1ccc(-c2n[nH]cc2-c2ccnc(-c3ccc(CN4CCOCC4)cc3)c2)nc1 [GW776245]    0
Cn1ccc2ncnc(Oc3ccc(Nc4nc5ccccc5[nH]4)cc3)c21    0

Query :: Lab request: please report %Inh under test system RIOK2 for CS(=O)(=O)c1ccc(-c2nc3n(c2-c2ccncc2)CCC3)cc1 [SKF-105942];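 also: KINOMEscan kinase panel screen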
Result :: 0

Query :: What %Inh appears in the records for this compound with RIOK2? Cc1cccc(-c2nc(Nc3cccc(C(N)=O)c3)c3ccccc3n2)n1 [GW876019]
Result :: 0

Query :: Hello, I am looking for reported %Inh with RIOK2 for O=C(Nc1n[nH]c2nc(-c3nccs3)c(Br)cc12)C1CC1 [SB-742251] . Could you help?
Result :: 0

Query :: Look up %Inh with RIOK2 for this compound: Cc1c(O)cccc1Nc1ccnc2ccc(C(F)(F)F)cc12.Cl [GW466413]
Result :: 2

Query :: State its %Inh on RIOK2: Cc1cccc(-c2cc(Nc3ccncc3)c3ccccc3n2)n1 [GSK223675]
Result :: 0

Query :: Reported %Inh for RIOK2, given CCn1c(-c2ccccn2)nc2cnccc21 [SB-736398] ?
Result :: 0
